inhibition overview
# targetOfAssay: Prostaglandin G/H synthase 1 (Homo sapiens, UniProt P23219)
# Sequence (P23219 whole entry): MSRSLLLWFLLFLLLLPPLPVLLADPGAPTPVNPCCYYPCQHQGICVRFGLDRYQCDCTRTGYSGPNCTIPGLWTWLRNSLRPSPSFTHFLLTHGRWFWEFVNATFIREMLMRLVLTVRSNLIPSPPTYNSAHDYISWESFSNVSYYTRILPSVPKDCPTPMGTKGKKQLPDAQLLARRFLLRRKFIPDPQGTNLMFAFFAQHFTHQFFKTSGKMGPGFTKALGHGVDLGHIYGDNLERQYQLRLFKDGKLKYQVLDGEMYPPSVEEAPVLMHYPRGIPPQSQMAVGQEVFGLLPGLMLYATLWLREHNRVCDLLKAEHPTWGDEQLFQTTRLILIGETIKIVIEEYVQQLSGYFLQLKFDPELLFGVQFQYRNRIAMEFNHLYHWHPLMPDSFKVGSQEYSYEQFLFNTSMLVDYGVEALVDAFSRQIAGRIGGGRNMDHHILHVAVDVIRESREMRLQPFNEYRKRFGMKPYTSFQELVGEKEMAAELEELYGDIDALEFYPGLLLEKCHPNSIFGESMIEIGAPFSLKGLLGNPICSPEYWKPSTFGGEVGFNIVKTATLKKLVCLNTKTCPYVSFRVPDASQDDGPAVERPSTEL
# assay: Inhibition of cyclooxygenase-1 in Homo sapiens (human) whole blood assessed as thromboxane B2 production at 100 uM after 1 hr by enzyme immunoassay
experimentalEndpoint: inhibition

[[record]]
moleculesmiles = "CS(=O)(=O)c1ccc(-c2cc(N)cc(-c3ccccc3)c2)cc1"
experimentalendpoint = "inhibition"
obsvalue = "85%"

[[record]]
moleculesmiles = "Nc1cc(-c2ccc(Cl)cc2)cc(-c2ccc(Cl)cc2)c1"
experimentalendpoint = "inhibition"
obsvalue = "93%"

[[record]]
moleculesmiles = "CCOc1ccc(-c2cc(N)cc(-c3ccccc3)c2)cc1"
experimentalendpoint = "inhibition"
obsvalue = "88%"


* * *

# targetOfAssay: Prostaglandin G/H synthase 2 (Homo sapiens)
# assay: Inhibition of cyclooxygenase-2 in Homo sapiens (human) whole blood assessed as LPS-induced PGE2 production at 10 uM incubated 15 min prior to LPS challenge measured after 24 hr by enzyme immunoassay
The source made the active and inactive calls. The rule behind the calls is not given here.
experimentalEndpoint: inhibition

[[record]]
moleculesmiles = "Cc1ccc(-c2cc(N)cc(-c3ccccc3)c2)cc1"
targetofassay = "Prostaglandin G/H synthase 2 (Homo sapiens)"
obsvalue = "49%"

[[record]]
moleculesmiles = "Cc1ccc(-c2cc(N)cc(-c3ccc(C)cc3)c2)cc1"
targetofassay = "Prostaglandin G/H synthase 2 (Homo sapiens)"
obsvalue = "57%"

[[record]]
moleculesmiles = "CS(=O)(=O)c1ccc(-c2cc(N)cc(-c3ccccc3)c2)cc1"
targetofassay = "Prostaglandin G/H synthase 2 (Homo sapiens)"
obsvalue = "inactive"

[[record]]
moleculesmiles = "CSc1ccc(-c2cc(N)cc(-c3ccccc3)c2)cc1"
targetofassay = "Prostaglandin G/H synthase 2 (Homo sapiens)"
obsvalue = "inactive"


* * *

# targetOfAssay: Prostaglandin G/H synthase 1 (Homo sapiens, UniProt P23219)
# assay: Inhibition of cyclooxygenase-1 in Homo sapiens (human) whole blood assessed as thromboxane B2 production at 10 uM after 1 hr by enzyme immunoassay
Calls of active or inactive are those of the source. No cut-off for these calls is given here.
experimentalEndpoint: inhibition

[[record]]
moleculesmiles = "CS(=O)(=O)c1ccc(-c2cc(N)cc(-c3ccccc3)c2)cc1"
obsvalue = "23%"

[[record]]
moleculesmiles = "Cc1ccc(-c2cc(N)cc(-c3ccccc3)c2)cc1"
obsvalue = "46%"

[[record]]
moleculesmiles = "Cc1ccc(-c2cc(N)cc(-c3ccc(C)cc3)c2)cc1"
obsvalue = "27%"

[[record]]
moleculesmiles = "CCOc1ccc(-c2cc(N)cc(-c3ccc(OCC)cc3)c2)cc1"
obsvalue = "inactive"

[[record]]
moleculesmiles = "Nc1cc(-c2ccccc2)cc(-c2ccc(Cl)cc2)c1"
obsvalue = "63%"

[[record]]
moleculesmiles = "CCOc1ccc(-c2cc(N)cc(-c3ccccc3)c2)cc1"
obsvalue = "20%"

[[record]]
moleculesmiles = "Nc1cc(-c2ccc(Cl)cc2)cc(-c2ccc(Cl)cc2)c1"
obsvalue = "19%"

[[record]]
moleculesmiles = "Nc1cc(-c2ccccc2)cc(-c2ccccc2)c1"
obsvalue = "56%"

[[record]]
moleculesmiles = "CSc1ccc(-c2cc(N)cc(-c3ccccc3)c2)cc1"
obsvalue = "29%"

[[record]]
moleculesmiles = "COc1ccc(-c2cc(N)cc(-c3ccccc3)c2)cc1"
obsvalue = "inactive"


* * *

# targetOfAssay: Prostaglandin G/H synthase 1 (Homo sapiens, UniProt P23219)
# assay: Inhibition of cyclooxygenase-1 in Homo sapiens (human) whole blood assessed as thromboxane B2 production at 100 uM after 1 hr by enzyme immunoassay
Parameter inhibition: see the listing below.
experimentalEndpoint: inhibition (%)

[[record]]
moleculesmiles = "Nc1cc(-c2ccccc2)cc(-c2ccccc2)c1"
experimentalendpoint = "inhibition"
obsvalue = 98

[[record]]
moleculesmiles = "Cc1ccc(-c2cc(N)cc(-c3ccccc3)c2)cc1"
experimentalendpoint = "inhibition"
obsvalue = 96

[[record]]
moleculesmiles = "Nc1cc(-c2ccccc2)cc(-c2ccc(Cl)cc2)c1"
experimentalendpoint = "inhibition"
obsvalue = 97

[[record]]
moleculesmiles = "CSc1ccc(-c2cc(N)cc(-c3ccccc3)c2)cc1"
experimentalendpoint = "inhibition"
obsvalue = 92

[[record]]
moleculesmiles = "Cc1ccc(-c2cc(N)cc(-c3ccc(C)cc3)c2)cc1"
experimentalendpoint = "inhibition"
obsvalue = 87

[[record]]
moleculesmiles = "COc1ccc(-c2cc(N)cc(-c3ccccc3)c2)cc1"
experimentalendpoint = "inhibition"
obsvalue = 92

